Listed here: items and their measured inhibition at 30 mg/kg.
Test system: lymphocytes
Experiment: Lymphocyte reduction in C57BL/6 mice
Assay type: in vivo
Conditions: Mus musculus, ip, 30 mg/kg intraperitoneal every day for four days, 24 hours after the last dose, read-out: Lymphocyte reduction % inh. day 4
Note: unit % is implicit; provide only the numeric part.

smilesCode	inhibition at 30 mg/kg [%]
CC1(C)CCC(CN2CCN(c3ccc(C(=O)NS(=O)(=O)c4ccc(NCC5(O)COCCOC5)c([N+](=O)[O-])c4)c(Oc4cnc5[nH]ccc5c4)c3)CC2)=C(c2ccc(Cl)cc2)C1	15
CC1(C)CCC(CN2CCN(c3ccc(C(=O)NS(=O)(=O)c4ccc(NC[C@H]5CCCOCC5)c([N+](=O)[O-])c4)c(Oc4cnc5[nH]ccc5c4)c3)CC2)=C(c2ccc(Cl)cc2)C1	57
C[C@@H]1CO[C@H](CNc2ccc(S(=O)(=O)NC(=O)c3ccc(N4CCN(CC5=C(c6ccc(Cl)cc6)CC(C)(C)CC5)CC4)cc3Oc3cnc4[nH]ccc4c3)cc2[N+](=O)[O-])CO1	58

Lookup: inhibition at 30 mg/kg / lymphocytes / "CC1(C)CCC(CN2CCN(c3ccc(C(=O)NS(=O)(=O)c4ccc(NCC5COC5)c([N+](=O)[O-])c4)c(Oc4cnc5[nH]ccc5c4)c3)CC2)=C(c2ccc(Cl)cc2)C1"
15

What do you get for "CC1(C)CCC(CN2CCN(c3ccc(C(=O)NS(=O)(=O)c4ccc(NCC5CCC6(CC5)OCCO6)c([N+](=O)[O-])c4)c(Oc4cnc5[nH]ccc5c4)c3)CC2)=C(c2ccc(Cl)cc2)C1" ?
55

---

Tested on: lymphocytes
Test: Lymphocyte reduction in C57BL/6 mice
Type: in vivo
Conditions: Mus musculus, ip, 30 mg/kg intraperitoneal every day for four days, 24 hours after the last dose, read-out: Lymphocyte reduction % inh. day 4
quantity: inhibition at 30 mg/kg (%)
Number only, in %; omit the unit.

Here's what some known entries look like.
smilesCode	quantity	endpointResult
CC1(C)CCC(CN2CCN(c3ccc(C(=O)NS(=O)(=O)c4ccc(NCC5CCOCC5)c([N+](=O)[O-])c4)c(Oc4cnc5[nH]ccc5c4)c3)CC2)=C(c2ccc(C3CC3)cc2)C1	inhibition at 30 mg/kg	51
CC1(C)CCC(CN2CCN(c3ccc(C(=O)NS(=O)(=O)c4ccc(NC[C@@H]5CCOC(C)(C)C5)c([N+](=O)[O-])c4)c(Oc4cnc5[nH]ccc5c4)c3)CC2)=C(c2ccc(Cl)cc2)C1	inhibition at 30 mg/kg	61
CC1(C)CCC(CN2CCN(c3ccc(C(=O)NS(=O)(=O)c4ccc(NCC5CCSCC5)c([N+](=O)[O-])c4)c(Oc4cnc5[nH]ccc5c4)c3)CC2)=C(c2ccc(Cl)cc2)C1	inhibition at 30 mg/kg	44
COC1(CNc2ccc(S(=O)(=O)NC(=O)c3ccc(N4CCN(CC5=C(c6ccc(Cl)cc6)CC(C)(C)CC5)CC4)cc3Oc3cnc4[nH]ccc4c3)cc2[N+](=O)[O-])CCOCC1	inhibition at 30 mg/kg	21

Shifting focus to the compound that follows.
Tell me the measured inhibition at 30 mg/kg of "CC1(C)CCC(CN2CCN(c3ccc(C(=O)NS(=O)(=O)c4ccc(NCC5(O)CCC(F)(F)CC5)c([N+](=O)[O-])c4)c(Oc4cnc5[nH]ccc5c4)c3)CC2)=C(c2ccc(Cl)cc2)C1" , please.
23
